studyTarget: TrkA-G667C (Homo sapiens, UniProt P04629, G667C)
Sequence (P04629 33-796 G667C): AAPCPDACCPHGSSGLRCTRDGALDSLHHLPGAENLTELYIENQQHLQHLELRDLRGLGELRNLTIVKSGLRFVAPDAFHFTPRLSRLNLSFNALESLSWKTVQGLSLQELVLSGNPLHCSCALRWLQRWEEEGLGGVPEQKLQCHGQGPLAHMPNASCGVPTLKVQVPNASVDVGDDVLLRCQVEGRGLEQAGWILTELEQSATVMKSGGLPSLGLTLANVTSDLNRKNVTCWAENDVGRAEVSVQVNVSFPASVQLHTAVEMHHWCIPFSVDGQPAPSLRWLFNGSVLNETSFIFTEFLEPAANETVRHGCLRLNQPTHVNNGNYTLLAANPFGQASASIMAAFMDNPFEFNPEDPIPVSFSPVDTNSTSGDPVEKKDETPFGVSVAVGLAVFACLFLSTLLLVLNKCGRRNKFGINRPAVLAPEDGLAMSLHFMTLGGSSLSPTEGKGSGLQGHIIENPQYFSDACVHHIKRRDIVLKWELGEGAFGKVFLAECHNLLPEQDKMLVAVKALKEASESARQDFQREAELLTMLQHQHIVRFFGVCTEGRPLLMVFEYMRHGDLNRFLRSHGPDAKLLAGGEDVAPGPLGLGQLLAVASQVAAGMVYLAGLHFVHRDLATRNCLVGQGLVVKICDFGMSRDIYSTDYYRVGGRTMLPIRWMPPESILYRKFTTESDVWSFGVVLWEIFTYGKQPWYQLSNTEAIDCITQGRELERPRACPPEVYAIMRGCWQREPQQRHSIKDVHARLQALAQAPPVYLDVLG
runDescription: Kinase inhibitory activity (33P-ATP filter binding, Reaction Biology Corp.)
testParameters: read-out: The half maximal inhibitory concentration IC50 on the kinases, TrkA-G667C
experimentalEndpoint: pIC50
Give bare numbers, as −log10 of the molar value.

State recorded pIC50 for all listed molecules.
1. C[C@@H]1COc2ncc(F)cc2[C@H]2CCON2c2ccn3ncc(c3n2)C(=O)N1 [WX004A]
2. O=C1N[C@@H]2COC[C@@H]2Oc2ncc(F)cc2[C@H]2CCON2c2ccn3ncc1c3n2 [WX008A]
3. O=C1NC2(CC2)COc2ncc(F)cc2[C@H]2CCON2c2ccn3ncc1c3n2 [WX002A]

Reply:
1: 7.38; 2: 8.19; 3: 8.15

Ask: Write down pIC50 measured for item O=C1NC2(COC2)COc2ncc(F)cc2[C@H]2CCON2c2ccn3ncc1c3n2 [WX006A]
Reply: 7.43

====

Would you kindly list pIC50 for each of these molecules?
studyTarget: TrkC (Homo sapiens)
Construct: purchased Reaction Biology Corp. (contract assay)
Sequence (Q16288 32-839): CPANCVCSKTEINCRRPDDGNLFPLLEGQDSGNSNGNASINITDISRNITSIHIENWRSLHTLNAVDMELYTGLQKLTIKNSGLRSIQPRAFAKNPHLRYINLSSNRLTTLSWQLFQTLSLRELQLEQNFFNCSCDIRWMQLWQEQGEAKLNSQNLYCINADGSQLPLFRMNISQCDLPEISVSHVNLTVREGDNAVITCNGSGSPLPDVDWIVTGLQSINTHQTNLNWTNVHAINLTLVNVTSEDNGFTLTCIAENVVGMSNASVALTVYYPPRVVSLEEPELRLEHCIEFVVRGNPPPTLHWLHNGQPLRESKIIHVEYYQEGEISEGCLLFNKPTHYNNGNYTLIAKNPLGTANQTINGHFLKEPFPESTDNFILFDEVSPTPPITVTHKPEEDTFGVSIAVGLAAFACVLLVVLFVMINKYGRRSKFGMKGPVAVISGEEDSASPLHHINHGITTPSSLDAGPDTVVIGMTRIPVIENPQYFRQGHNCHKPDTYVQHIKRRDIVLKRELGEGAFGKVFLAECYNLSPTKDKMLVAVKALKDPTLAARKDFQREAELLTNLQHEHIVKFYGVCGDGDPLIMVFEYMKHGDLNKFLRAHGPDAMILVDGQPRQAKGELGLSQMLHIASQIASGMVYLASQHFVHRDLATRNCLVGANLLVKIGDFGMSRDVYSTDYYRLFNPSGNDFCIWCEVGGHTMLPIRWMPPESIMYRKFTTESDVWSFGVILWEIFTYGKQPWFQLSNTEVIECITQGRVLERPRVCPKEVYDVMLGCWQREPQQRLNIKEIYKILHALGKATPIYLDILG
runDescription: Kinase inhibitory activity (33P-ATP filter binding, Reaction Biology Corp.)
Assay type: biochemical
testParameters: read-out: The half maximal inhibitory concentration IC50 on the kinases, TrkC
Answers are plain numbers, as −log10 of the molar value.

O=C1NC2(CC2)COc2ncc(F)cc2[C@H]2CCON2c2ccn3ncc1c3n2 [WX002A] : 9.85
C[C@H]1CNC(=O)c2cnn3ccc(nc23)N2OCC[C@H]2c2cc(F)cnc2O1 [WX005A] : 6.72
C[C@@H]1COc2ncc(F)cc2[C@@H]2CCON2c2ccn3ncc(c3n2)C(=O)N1 [WX004B] : 6.98
O=C1NC2(CC2)COc2ccc(F)cc2[C@H]2CCON2c2ccn3ncc1c3n2 (single isomer, unassigned) [WX003A] : 10.22
O=C1N[C@@H]2COC[C@@H]2Oc2ncc(F)cc2[C@H]2CCON2c2ccn3ncc1c3n2 [WX008A] : 10.30
O=C1N[C@@H]2CCC[C@@H]2Oc2ncc(F)cc2[C@H]2CCON2c2ccn3ncc1c3n2 [WX007A] : 10.30

State recorded pIC50 for all listed molecules.
1. C[C@@H]1COc2ncc(F)cc2[C@H]2CCON2c2ccn3ncc(c3n2)C(=O)N1 [WX004A]
2. C[C@H]1CNC(=O)c2cnn3ccc(nc23)N2OCC[C@@H]2c2cc(F)cnc2O1 [WX005B]
3. O=C1NC2(COC2)COc2ncc(F)cc2[C@H]2CCON2c2ccn3ncc1c3n2 [WX006A]
4. C[C@@H]1COc2ccc(F)cc2[C@H]2CCON2c2ccn3ncc(c3n2)C(=O)N1 [WX017A]

Reply:
9.39
10.05
9.80
9.52

====

runDescription: In vivo cassette pharmacokinetic test in mice
Parameters: species or system male CD-1 mice
testParameters: IV @ 1 mpk, cassette, mice, plasma; read-out: Initial concentration C0
experimentalEndpoint: C0 (µM)
Numbers only, in µM.

Ask: Write down C0 measured for item O=C1NC2(CC2)COc2ncc(F)cc2[C@H]2CCON2c2ccn3ncc1c3n2 [WX002A]
Reply: 3.71

====

runDescription: In vivo pharmacokinetic test in mice
Design: species or system male CD-1 mice
testParameters: male, CD-1, mouse, plasma, IV dose of 3 mg/kg, read-out: Apparent volume of distribution Vd
experimentalEndpoint: Vd
Kindly report the value followed by its unit.

These solved cases illustrate the format of a correct answer.
C[C@@H]1COc2ncc(F)cc2[C@H]2CCON2c2ccn3ncc(c3n2)C(=O)N1 [WX004A] : 0.75 L/kg
O=C1N[C@@H]2CCC[C@@H]2Oc2ncc(F)cc2[C@H]2CCON2c2ccn3ncc1c3n2 [WX007A] : 0.47 L/kg
C[C@@H]1COc2ccc(F)cc2[C@H]2CCON2c2ccn3ncc(c3n2)C(=O)N1 [WX017A] : 0.74 L/kg

Ask: Write down Vd measured for item C[C@H]1CNC(=O)c2cnn3ccc(nc23)N2OCC[C@@H]2c2cc(F)cnc2O1 [WX005B]
Reply: 0.44 L/kg

Where these numbers come from: patent US11464780B2
